Kindly state bioavailability for each of the entries shown.
Test: Pharmacokinetics in Sprague-Dawley rats, 2-in-1 dosing
Format: in vivo
Settings: Sprague-Dawley, rat, plasma; PO 5 mg/kg versus intravenous 1 mg/kg, AUCinf dose normalized (Table 3); read-out: F (percent oral bioavailability)
Procedure: Sprague-Dawley rats (approximate weight 275-300 g, N=3) were dosed intravenously at 5 mL/kg and orally at 10 mL/kg with the above dosing solutions. Blood samples were collected into tubes containing EDTA as the anticoagulant at 0, 0.25 (intravenous only), 0.5, 1, 2, 4, 8, 10, and 24 h post-dosing, and plasma samples were prepared by centrifugation. […]
Quick reminder: number only, in %, skip the unit.

Ask: GET /values?readout=bioavailability&item= Cc1nc(Nc2ncc(C(=O)Nc3c(C)cccc3Cl)s2)cc(N2CC[C@@H](O)C2)n1
Result: 24

Ask: GET /values?readout=bioavailability&item= [2H]c1cc(C)c(NC(=O)c2cnc(Nc3cc(N4CCN(CCO)CC4)nc(C)n3)s2)c(Cl)c1
Result: 6
